Each record here notes measured MFI.
# TARGET OR TEST SYSTEM: T1, IL-12 (Human IL12 (His Tag)), Sino Biological Cat. No. CT-050-H08H-20 (human, UniProt P29460 23-328; P29459 23-219)
# T1 construct: Bought His-tagged p35/p40 heterodimer
# T1 sequence (looked up) 1: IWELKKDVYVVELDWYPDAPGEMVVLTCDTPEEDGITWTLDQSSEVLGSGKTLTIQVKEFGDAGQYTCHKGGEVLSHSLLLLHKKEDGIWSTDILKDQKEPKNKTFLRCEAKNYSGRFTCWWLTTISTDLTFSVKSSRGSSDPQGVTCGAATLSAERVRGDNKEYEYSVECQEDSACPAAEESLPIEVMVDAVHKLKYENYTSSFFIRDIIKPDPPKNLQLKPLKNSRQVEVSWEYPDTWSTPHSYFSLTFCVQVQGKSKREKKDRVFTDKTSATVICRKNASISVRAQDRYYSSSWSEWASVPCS
# T1 sequence (looked up) 2: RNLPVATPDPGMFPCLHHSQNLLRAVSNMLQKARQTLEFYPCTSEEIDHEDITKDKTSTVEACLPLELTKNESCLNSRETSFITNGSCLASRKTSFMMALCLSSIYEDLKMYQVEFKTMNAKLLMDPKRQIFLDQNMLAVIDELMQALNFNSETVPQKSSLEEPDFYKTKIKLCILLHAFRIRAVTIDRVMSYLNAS
# ASSAY REMARKS: FACS competition, IL-12-His 20 nM on 293T-IL-12RB1&IL-23R cells, antibody 0.04 µg/mL
# Protocol: 200 μL of 1% PBSA was added into each sample, and the mixture was centrifuged at 700×g for 5 min to discard the supernatant. According to experiment design, correspondingly diluted antibody (highest final concentration of 30 μg/mL, 3-fold dilution, 8 concentrations in total) and human IL-12 (Sino Biological, Cat. No.: CT-050-H08H-20) (final concentration of 20 nM) were mixed at a ratio of 1:1, and a blank control was set. […]
Returns: the value as a bare number; no unit string appended.

Some solved cases for reference:
BINDER: H5L10 (antibody, human IgG1, kappa, V domains shown, IgG1/kappa) VH: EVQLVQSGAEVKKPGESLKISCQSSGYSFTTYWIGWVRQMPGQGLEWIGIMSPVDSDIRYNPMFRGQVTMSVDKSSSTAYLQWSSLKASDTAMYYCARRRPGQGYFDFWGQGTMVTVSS VL: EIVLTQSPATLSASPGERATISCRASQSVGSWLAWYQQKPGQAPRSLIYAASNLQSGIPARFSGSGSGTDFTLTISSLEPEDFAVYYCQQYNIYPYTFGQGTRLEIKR
VALUE TYPE: MFI
OBSERVED VALUE: 154
--
BINDER: H5L12 (antibody, human IgG1, kappa, V domains shown, IgG1/kappa) VH: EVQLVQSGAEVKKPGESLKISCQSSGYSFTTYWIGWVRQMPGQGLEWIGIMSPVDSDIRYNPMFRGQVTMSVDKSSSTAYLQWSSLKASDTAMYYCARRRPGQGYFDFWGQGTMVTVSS VL: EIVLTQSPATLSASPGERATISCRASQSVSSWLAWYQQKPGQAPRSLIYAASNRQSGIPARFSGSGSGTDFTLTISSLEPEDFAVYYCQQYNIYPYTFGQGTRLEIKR
VALUE TYPE: MFI
OBSERVED VALUE: 149

Kindly review the next binder as well.
Ask: # get_value(readout='MFI', item= ustekinumab (trade name Stelara) (antibody, V domains shown) VH: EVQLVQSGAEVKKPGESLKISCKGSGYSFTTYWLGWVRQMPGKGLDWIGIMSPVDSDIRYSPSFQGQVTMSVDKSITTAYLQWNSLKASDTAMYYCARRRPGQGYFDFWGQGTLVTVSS VL: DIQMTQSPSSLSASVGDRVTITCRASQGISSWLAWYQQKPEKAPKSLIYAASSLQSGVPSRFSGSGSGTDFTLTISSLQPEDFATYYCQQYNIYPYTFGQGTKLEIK )
Reply: 150
